Biological target: T1, human CLDN9 (UniProt O95484 1-217)
T1 chain: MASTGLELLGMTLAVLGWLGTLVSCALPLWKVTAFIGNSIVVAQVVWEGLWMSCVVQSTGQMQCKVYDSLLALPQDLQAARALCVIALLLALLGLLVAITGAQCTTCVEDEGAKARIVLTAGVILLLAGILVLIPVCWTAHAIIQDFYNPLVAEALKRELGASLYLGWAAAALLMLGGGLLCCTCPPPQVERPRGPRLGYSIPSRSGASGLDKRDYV
Assay: HEK293E cell binding; avid
Overview of recorded EC50 for various binders
Write it as a number; the unit µg/mL goes unstated.

binder: XENP35070 H2_L1.27 (antibody, V domains shown) VH: EVQLVQSGAEVKKPGESLRISCKTSGYTFTEYTMHWVRQMPGKSLEWMGGIDPNNGNTHYNQKFQGHVTISVDKSISTAYLQWSSLKASDTAMYYCARIYYFGRLYFDFWGAGTLVTVSS VL: DIQMTQSPSSLSASVGDRVTITCQASEDIYNRLAWYQQKPGKVPKLLISGATSLESGVPSRFSGSGSGKDYTFTISSLQPEDIATYYCQQYWSSPLTFGGGTKVEIKR
EC50 (µg/mL): 29.7
--
binder: XENP35065 H2_L1.22 (antibody, V domains shown) VH: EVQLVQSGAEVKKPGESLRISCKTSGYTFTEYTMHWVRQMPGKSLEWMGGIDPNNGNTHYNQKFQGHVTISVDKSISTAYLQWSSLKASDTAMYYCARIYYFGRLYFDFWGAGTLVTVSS VL: DIQMTQSPSSLSASVGDRVTITCQASEDIYNRLAWYQQKPGKVPKLLISGATQLETGVPSRFSGSGSGKDYTFTISSLQPEDIATYYCQQYWSSPLTFGGGTKVEIKR
EC50 (µg/mL): 69.1
--
binder: XENP35101 having H2.8_L1 (antibody, V domains shown) VH: EVQLVQSGAEVKKPGESLRISCKTSGYTFTEYTMHWVRQMPGKSLEWMGGIDPNNDNTHYNQKFQGHVTISVDKSISTAYLQWSSLKASDTAMYYCARIYYFGRLYFDFWGAGTLVTVSS VL: DIQMTQSPSSLSASVGDRVTITCQASEDIYNRLAWYQQKPGKVPKLLISGATSLETGVPSRFSGSGSGKDYTFTISSLQPEDIATYYCQQYWSSPLTFGGGTKVEIKR
EC50 (µg/mL): 1.06
--
binder: XENP35087 H1.3_L1 (antibody, V domains shown) VH: QVQLVQSGAEVKKPGASVKVSCKTSGYTFTEYTMHWVRQAPGQSLEWMGGIDSNNGNTHYNQKFQGRVTITVDKSASTAYMELSSLRSEDTAVYYCARIYYFGRLYFDFWGAGTLVTVSS VL: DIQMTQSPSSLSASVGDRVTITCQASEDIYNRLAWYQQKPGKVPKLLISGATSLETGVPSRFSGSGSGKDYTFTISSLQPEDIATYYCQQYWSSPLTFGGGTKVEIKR
EC50 (µg/mL): 31.8

State its EC50: XENP35091 H1.7_L1 (antibody, V domains shown) VH: QVQLVQSGAEVKKPGASVKVSCKTSGYTFTEYTMHWVRQAPGQSLEWMGGIDPNQGNTHYNQKFQGRVTITVDKSASTAYMELSSLRSEDTAVYYCARIYYFGRLYFDFWGAGTLVTVSS VL: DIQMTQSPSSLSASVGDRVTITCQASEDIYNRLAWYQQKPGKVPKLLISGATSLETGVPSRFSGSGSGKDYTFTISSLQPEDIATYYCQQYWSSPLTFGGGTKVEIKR 31.4

These measurements were taken from patent US20240400675A1.
